Target: Homeobox protein Hox-A13 (Mus musculus) (UniProt Q62424)
Sequence (Q62424 whole entry, looked up): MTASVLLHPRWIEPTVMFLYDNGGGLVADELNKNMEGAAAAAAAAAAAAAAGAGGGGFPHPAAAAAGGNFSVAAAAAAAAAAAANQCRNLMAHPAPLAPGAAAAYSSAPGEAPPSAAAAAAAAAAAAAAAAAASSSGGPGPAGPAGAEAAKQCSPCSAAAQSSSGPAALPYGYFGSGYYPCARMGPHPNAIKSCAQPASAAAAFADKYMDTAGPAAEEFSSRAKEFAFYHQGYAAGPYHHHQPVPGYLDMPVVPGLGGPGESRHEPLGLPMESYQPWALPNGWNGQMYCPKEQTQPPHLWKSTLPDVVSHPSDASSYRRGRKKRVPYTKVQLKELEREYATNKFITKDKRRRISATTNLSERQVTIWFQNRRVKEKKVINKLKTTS
Assay: inhibitors of HoxA13-DNA binding, primary screen, biochemical, fluorescence polarization, labeled oligonucleotide (AID 1185)
Conditions: 15 min, higher = more signal, called active from +8 up or from −8 down
Please use t whenever z-score is not below -4, and f whenever it is.

Below are worked cases with known answers.
molecule: O=C(O)[C@@H]1C[C@@H]2C(=O)N3CCC[C@H]3C(=O)N2[C@@H]1c1cccc(OCCO)c1
cat: t
--
molecule: [N-]=[N+]=NCc1ccccc1C[C@@]1(C(=O)N2CCCCC2)N=C(c2ccc(OCCCO)cc2)O[C@@H]1c1ccccc1CN=[N+]=[N-]
cat: t
--
molecule: CN1C=C(C(=O)OCCS(C)(=O)=O)C(C(=O)OCCS(C)(=O)=O)=CC(c2ccc(CO)cc2)=CC1c1cccs1 (centres undefined)
cat: f
--
molecule: CC(C)CNC(=O)[C@@H]1c2ccccc2C(=O)N(C2CCCCC2)[C@H]1c1ccc(CO)cc1
cat: t
--
molecule: CC(C)CNC(=O)[C@@]1(c2ccc([N+](=O)[O-])cc2)CC(=O)N(C2CCCCC2)[C@@H]1c1ccc(CO)cc1
cat: t

Could you verify whether the entry `COCCOC(=O)N1C(=O)[C@@]2(c3cc(C#CCCO)ccc31)[C@H](c1ccccc1OCCO)N1[C@H](c3ccccc3)[C@H](c3ccccc3)OC(=O)[C@H]1[C@@H]2C(=O)N1CCCCCCC1` shows z-score of no less than -4?
t

What do we get for `C=CCNC(=O)[C@H]1[C@@H]2C(=O)O[C@@H](c3ccccc3)[C@@H](c3ccccc3)N2[C@@H](c2ccc(OCCO)cc2)[C@]12C(=O)Nc1ccc(C#CCNC(N)=O)cc12` ?
t

Then this molecule: CC(=O)N1CC(C(O)C2C=CC3C(=O)NC(=O)C3N2Nc2ccc(Cl)cc2Cl)c2ccccc21 (centres undefined)
f

# iterate: `C=CC[C@H](OC(=O)Nc1ccc(SC)cc1)c1ccc(OCCO)cc1`
f

CC1CC/C=C\[C@H]2OC34C=CCN(CCN5CCOCC5)C(=O)[C@H]3N(C(C)CO)C(=O)[C@@H]4C2C(=O)O1 (some centres undefined) , same question.
f

====

Let's look at some molecules and their measured composite z-score.
Test system: Sonic hedgehog protein (Shh)
Test: small-molecule binders of Shh protein, primary screen, biochemical, small-molecule microarray, 635/667 nm fluorescence (AID 1151);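 further: Shh protein binding to compounds spotted on small-molecule microarray slides; score combines spot fluorescence intensity with signal-to-noise across triplicate slides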
Conditions: small-molecule microarray binding, 635 nm fluorescence; higher = more signal
Reply with just the number.

molecule: CC(C)C(=C=CC[C@H](O)c1cccc(OCCO)c1)CCO
system_tested: Sonic hedgehog protein (Shh)
observation_type: composite z-score
reported: 0.688
--
molecule: O=C(CS)NCCCCCNC(=O)[C@@H]1C[C@@H]2C(=O)N[C@@H](Cc3ccccc3)C(=O)N2[C@@H]1c1cccc(OCCO)c1
system_tested: Sonic hedgehog protein (Shh)
observation_type: composite z-score
reported: 1.49
--
molecule: COc1cc(NN2C(C(O)c3ccccc3)C=CC3C(=O)N(C)C(=O)C32)cc(OC)c1OC (stereo not given)
system_tested: Sonic hedgehog protein (Shh)
observation_type: composite z-score
reported: 0.36
--
molecule: C=C[C@@H](OC)[C@H](OC(=O)Nc1ccc(OC)cc1)c1ccc(OC)c(O)c1
system_tested: Sonic hedgehog protein (Shh)
observation_type: composite z-score
reported: 0.63
--
molecule: CO[C@H]1O[C@H](CO)[C@@H](OC(=O)CCc2ccccc2)[C@H](OC(=O)c2cc3ccccc3[nH]2)[C@H]1OC(=O)c1cc2ccccc2[nH]1
system_tested: Sonic hedgehog protein (Shh)
observation_type: composite z-score
reported: 0.832
--
molecule: CCOC(=O)C1=CCC(c2ccco2)N(S(=O)(=O)c2ccc(C)cc2)C1 (stereo not given)
system_tested: Sonic hedgehog protein (Shh)
observation_type: composite z-score
reported: 0.409
--
molecule: COCCOC(=O)N1C(=O)[C@@]2(c3cc(C#CCC(C(=O)OC)C(=O)OC)ccc31)[C@H](C(=O)NC[C@H](O)c1ccccc1)[C@H]1C(=O)O[C@H](c3ccccc3)[C@H](c3ccccc3)N1[C@@H]2c1ccc(OCCO)cc1
system_tested: Sonic hedgehog protein (Shh)
observation_type: composite z-score
reported: 1.69
--
molecule: COC(=O)[C@@]1(Cc2ccc(F)cc2)[C@H]2c3cc(C(=O)N4CCCC4)n(CC4CC4)c3C[C@H]2CN1C(=O)c1ccccc1
system_tested: Sonic hedgehog protein (Shh)
observation_type: composite z-score
reported: 0.377
--
molecule: C=C(CCCC)C(=O)CC[C@H](OC(C)=O)c1ccc(OCCO)cc1
system_tested: Sonic hedgehog protein (Shh)
observation_type: composite z-score
reported: -0.0938
--
molecule: COCCOC(=O)N1C(=O)[C@@]2(c3ccccc31)[C@H](c1ccccc1OCCO)N1[C@H](c3ccccc3)[C@H](c3ccccc3)OC(=O)[C@H]1[C@@H]2C(N)=O
system_tested: Sonic hedgehog protein (Shh)
observation_type: composite z-score
reported: 1.48

What value of measured composite z-score is listed for `[N-]=[N+]=NCc1ccccc1C[C@]1(C(=O)N2CCOCC2)COC(c2ccc(OCCCO)cc2)=N1` ?
0.179

Queued: NC(=O)N1C(=O)C2C(C1=O)C1C=C(CCCO)C2C(C2CC2)N1Cc1cccc(OC(F)(F)F)c1 (stereo not given)
0.393

Now the same for `Cc1c(NC(=O)/C(C#N)=C/c2ccccc2Cl)c(=O)n(-c2ccccc2)n1C`
0.0651

Also `NC(=O)[C@@H]1[C@H]2C(=O)O[C@H](c3ccccc3)[C@H](c3ccccc3)N2[C@H](c2ccc(OCCO)cc2)[C@@]12C(=O)Nc1ccc(C#CCCO)cc12` ?
0.0995

Now consider `CN(C)C(=O)[C@@]1(CCC(=O)OC(C)(C)C)N=C(c2ccc(OCCCO)cc2)O[C@H]1c1ccccc1CN=[N+]=[N-]` .
-0.733

====

Test: fission yeast growth modulation, primary screen, strain 972, OD600, 24 h, no modulator (AID 1090);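 further: basal condition with compound alone and no growth modifier present; test concentration not given here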
Details: S. pombe 972 growth, higher = more signal, called active from +8 up or from −8 down
Is z-score at least 0.07? Then yes (1). If not, no (0).

Consider the following illustrative entries.
compound: CC(C)CNC(=O)[C@@]1(C)c2ccccc2C(=O)N(Cc2cc(C(F)(F)F)cc(C(F)(F)F)c2)[C@H]1c1ccc(CO)cc1
cat: yes (1)
--
compound: CCOC(=O)C1=CC[C@@H](c2ccccc2)N(S(=O)(=O)c2ccc(C)cc2)[C@H]1C=Cc1ccccc1
cat: yes (1)
--
compound: CN1C(=O)[C@@]2(Cc3ccccc3)N=C(c3ccc(OCCCO)cc3)O[C@H]2c2ccccc21
cat: no (0)
--
compound: CC(C)C(=C=CC[C@@H](O)c1cccc(OCCO)c1)C[C@@H](O)COCc1ccccc1
cat: no (0)
--
compound: CCC(CC)C(O)C1C=CC2C(=O)N(c3ccccc3)C(=O)C2N1Nc1ccc([N+](=O)[O-])cc1 (stereo unspecified)
cat: yes (1)
--
compound: C=C(CCCC)/C(=C/C[C@H](OC(C)=O)c1ccc(OCCO)cc1)c1cc(C(=O)OC)ccc1OC
cat: no (0)

Hello, I need to know if `COCCOC(=O)N1C(=O)[C@@]2(c3cc(C#CCNC(N)=O)ccc31)[C@H](c1ccc(OCCO)cc1)N1[C@H](c3ccccc3)[C@H](c3ccccc3)OC(=O)[C@H]1[C@@H]2C(=O)NC[C@H](O)c1ccccc1` has measured z-score not below 0.07. Thanks!
yes (1)

Likewise for `COC(=O)C(CC#Cc1ccc2c(c1)[C@]1(C(=O)N2)[C@H](c2ccc(OCCO)cc2)N2[C@H](c3ccccc3)[C@H](c3ccccc3)OC(=O)[C@H]2[C@@H]1C(=O)N1CCN(c2ncccn2)CC1)C(=O)OC` ?
yes (1)

Entry `CCCC=C(CCC)[C@@H](NS(=O)(=O)c1cccc2cccnc12)c1ccc(-c2ccccc2)cc1` please
yes (1)

Follow-up entry: `CC(C)(C)OC(=O)CC[C@]1(C(=O)N2CCCCC2)COC(c2ccc(OCCCO)cc2)=N1`
no (0)

What do you get for COc1cc2c(cc1O)C(c1cccs1)N(Cc1sc3ccccc3c1Cl)CC2 (stereo unspecified) ?
no (0)

// query: CC(=O)N1CC(C(O)C2C=CC3C(=O)NC(=O)C3N2Nc2ccc(Cl)cc2Cl)c2ccccc21 (stereo unspecified)
yes (1)

Would you kindly repeat that for `Cc1cccc([C@H]2C[C@H]3C(I)=C[C@@H]2C(=O)[C@]32CO2)c1` ?
no (0)

Field entry: CC=CC(O)C1C=CC2C(=O)NC(=O)C2N1Nc1ccccn1 (stereo unspecified)
yes (1)

Record: `COCCOC(=O)N1C(=O)[C@@]2(c3cc(C#CC4=CCCCC4)ccc31)[C@H](c1ccc(O)cc1)N1[C@H](c3ccccc3)[C@H](c3ccccc3)OC(=O)[C@H]1[C@@H]2C(=O)NC[C@H](O)c1ccccc1`
yes (1)
